Assay: GHS categories as the set defines them, by LD50: 1 up to 5, 2 up to 50, 3 up to 300, 4 up to 2000, 5 above 2000 mg/kg
Details: rat; in vivo; po
property label: GHS category
Numbers only.

Worked cases, GHS category given:
Enquiry: Recorded GHS category of `CCOC(=O)c1ccnc(C(=O)OCC)c1` , please.
Return: 5

Enquiry: Recorded GHS category of `N=C1C=CC2=CC(S(=O)(=O)O)=CC(=O)C2=C1NNc1ccc(-c2ccc(N=Nc3cc(S(=O)(=O)O)c4ccccc4c3N)cc2)cc1` , please.
Return: 5

Enquiry: Recorded GHS category of `CC(C)OC(=O)N[C@H](C(=O)N[C@H](C)c1nc2ccc(F)cc2s1)C(C)C` , please.
Return: 5

Enquiry: Recorded GHS category of `CCCCCCOc1ccccc1C(N)=O` , please.
Return: 5

Enquiry: Recorded GHS category of `COC[C@H]1CO[C@@](Cn2ccnc2)(c2cc3ccccc3o2)O1` , please.
Return: 4

I would be grateful if you could provide GHS category for each of the following entries.
1. CSC
2. COC(=O)CCCCCCCCC(=O)OC
3. COc1nc(Nc2ccccc2)nc(Nc2ccc(C=Cc3ccc(Nc4nc(Nc5ccccc5)nc(OC)n4)cc3S(=O)(=O)O)c(S(=O)(=O)O)c2)n1
4. Cn1c(=O)oc2cc(C(=O)c3cccs3)ccc21

Return:
4
5
5
5

I would be grateful if you could provide GHS category for each of the following entries.
1. CCCCCCCCC(C)C
2. CC(=O)Nc1ccc(Cc2ccccn2)c([N+](=O)[O-])c1

Return:
[5, 3]
